# assay_system: human TRPV4 (Homo sapiens, UniProt Q9HBA0)
# Construct: host or cells: tetracycline-inducible Flp-In T-REx 293 cells
# Sequence (Q9HBA0 whole entry): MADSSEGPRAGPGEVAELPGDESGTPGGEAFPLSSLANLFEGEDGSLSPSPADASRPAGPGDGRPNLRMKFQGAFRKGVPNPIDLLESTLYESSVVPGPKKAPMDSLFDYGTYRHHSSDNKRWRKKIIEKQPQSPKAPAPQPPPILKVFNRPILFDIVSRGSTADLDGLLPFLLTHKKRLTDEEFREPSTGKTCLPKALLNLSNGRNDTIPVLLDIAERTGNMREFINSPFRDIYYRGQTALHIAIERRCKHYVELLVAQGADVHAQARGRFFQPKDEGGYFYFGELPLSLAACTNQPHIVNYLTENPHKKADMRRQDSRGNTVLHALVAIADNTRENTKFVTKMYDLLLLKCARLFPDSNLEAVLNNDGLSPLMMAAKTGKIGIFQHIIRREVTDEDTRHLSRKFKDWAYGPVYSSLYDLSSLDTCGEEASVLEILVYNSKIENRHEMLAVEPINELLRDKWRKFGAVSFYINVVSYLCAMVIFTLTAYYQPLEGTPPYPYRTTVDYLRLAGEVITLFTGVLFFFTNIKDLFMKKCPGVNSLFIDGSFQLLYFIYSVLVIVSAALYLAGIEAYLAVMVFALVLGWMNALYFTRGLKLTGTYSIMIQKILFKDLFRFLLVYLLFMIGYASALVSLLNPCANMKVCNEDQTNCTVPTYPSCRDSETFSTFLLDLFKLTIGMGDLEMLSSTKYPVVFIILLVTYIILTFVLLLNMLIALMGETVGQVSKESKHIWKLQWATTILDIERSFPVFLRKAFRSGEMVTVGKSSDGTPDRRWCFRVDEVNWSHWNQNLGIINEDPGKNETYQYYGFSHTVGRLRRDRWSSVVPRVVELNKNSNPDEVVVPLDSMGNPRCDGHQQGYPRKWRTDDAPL
# test_method_notes: Hypotonicity-induced Ca2+ influx (Fluo-4, FDSS)
# Format: cell-based
# condition_parameters: Flp-In T-REx 293 cells expressing human TRPV4, examples listed under heading 'Human IC50<50 nM'
# Experimental: Hypotonicity-Induced Ca^2+ Influx TRPV4 channel activation/opening results in an influx of Ca^2+ (Liedtke, W. et al., 2000 (NPL 1)). The resulting changes in intracellular calcium are monitored using a Ca^2+ sensitive fluorescent dye Fluo-4 (Invitrogen). Dye loaded cells are treated with the test compounds for 5 minutes prior to the addition of a hypotonic solution and the inhibition of the hypotonicity-induced activation is recorded. […]

smiles_str: O=C([C@H](O)c1cccc(C(F)(F)F)c1)N1CCCc2nc(C3(c4cccc(-c5ccncc5)c4)CC3)[nH]c(=O)c2C1
assay_system: human TRPV4 (Homo sapiens, UniProt Q9HBA0)
IC50: < 50 nM
--
smiles_str: O=C([C@H](O)c1cccc(-c2cc(Cl)cc(C(F)(F)F)c2)c1)N1CCc2nc(C3(c4ccccc4)CC3)[nH]c(=O)c2C1
assay_system: human TRPV4 (Homo sapiens, UniProt Q9HBA0)
IC50: < 50 nM
--
smiles_str: O=C([C@H](O)c1cccc(C(F)(F)F)c1)N1CCCc2nc(C3(c4cccc(C5CCCCC5)c4)CC3)[nH]c(=O)c2C1
assay_system: human TRPV4 (Homo sapiens, UniProt Q9HBA0)
IC50: < 50 nM
--
smiles_str: O=C([C@H](O)c1cccc(Br)c1)N1CCCc2nc(C3(c4ccccc4)CC3)[nH]c(=O)c2C1
assay_system: human TRPV4 (Homo sapiens, UniProt Q9HBA0)
IC50: < 50 nM
